experiment: gradient 5% acetonitrile 3 min, to 50% in 2 min, to 85% in 15 min, held 3 min, 100 µL/min; conditions: column: Zorbax Extend-C18 2.1 x 50 mm; eluents: water / acetonitrile, 0.1% formic acid
property: RP-LC retention time (s)

Known results for compounds:
COC(=O)c1ccc(NC(=O)NCCn2c(C(F)(F)F)nc3cccnc32)cc1 : 706
CCOC(=O)c1oc2ccccc2c1NC(=O)c1ccc([N+](=O)[O-])s1 : 1040
Cc1ccc2oc(-c3nnc(C(=O)NCCCN4CCCC4)o3)c(C)c2c1 : 688

(A) COc1ccc2[nH]cc(CCNC(=O)Cc3ccc(F)cc3)c2c1
(B) Cc1nnc(NC(=O)CN2CCC(c3nnc(C(F)(F)F)o3)CC2)s1
(C) Cc1ccc(F)cc1NC(=O)c1cc(C(C)C)n2nccc2n1
Please put the entries in order of rising RP-LC retention time. To answer, write out the labels according to the requested order.
B, A, C
